Test system: SF-295 CNS
experimental-details: NCI tumour cell line growth inhibition, 48 h
measurement-kind: TGI

molecule="O=[N+]([O-])c1ccc(C2ON=C(c3ccccc3)N2C23CC4CC(CC(C4)C2)C3)cc1 (centres undefined)" system_name="SF-295 CNS" result="> 10 µM"

TGI for `Nc1c(C(=O)c2cccc(C#CCN3CCCCC3)c2)cnn1-c1ccc(F)cc1` ?
> 25 µM

TGI for `CN(C)N1C(=O)SCC(c2ccccc2)(c2ccccc2)C1=O` ?
> 100 µM

TGI for `CC(=O)c1ccc2c(c1)N(CCCN1CCN(CCO)CC1)c1ccccc1S2` ?
4.26 µM

---

System: MDA-MB-435
experimental-details: NCI tumour cell line growth inhibition, 48 h
Recorded TGI by entry
Write the value in µM as a bare number.

Some solved entries appear below for comparison.
compound=Clc1ccc(-c2cc(-c3cc4cc(Br)ccc4nc3Cl)on2)cc1 recorded_number=32.1
compound=O=C(N=Nc1ccc(Cl)cc1Cl)NNc1ccc(Cl)cc1Cl recorded_number=51.3

TGI for `Cc1ccc(Cl)cc1N=NC(=O)NNc1cc(Cl)ccc1C` ?
99

TGI for `COc1ccc(Nc2nc(Nc3cc(C)[nH]n3)c3cc(OC)c(OC)cc3n2)cc1` ?
2.58

TGI for FC(F)(F)c1ccc2c(c1)nc1n2C(c2c(Cl)cccc2Cl)SC1 (centres undefined) ?
41.4

TGI for `C=C1C(=O)O[C@H]2[C@H]1CC/C(Cn1cc(-c3ccc(N)cc3)nn1)=C\CC[C@@]1(C)O[C@@H]21` ?
11.5
